ASSAYED_TARGET: E. coli MurD (Escherichia coli)
TEST_METHOD_NOTES: biochemical
PROTOCOL_CONDITIONS: residual activity at 100 µM compound; Table 1
Under this convention, t denotes MurD RA [%] strictly below 40% and f denotes MurD RA [%] at or above 40%.

Qu. Is 40% strictly greater than the compound's reported MurD RA [%]? compound: `Cc1cc(-c2ccco2)cc(C)c1/C=C/c1cncc(-c2nn[nH]n2)c1`
Ans. f

Qu. Is 40% strictly greater than the compound's reported MurD RA [%]? compound: `Nc1ccc(C#Cc2cncnc2Nc2ccc(OCc3cccc(F)c3)c(Cl)c2)cc1`
Ans. f

Qu. Is 40% strictly greater than the compound's reported MurD RA [%]? compound: `COc1ccc(-c2nn3ncccc3c2-c2ccnc(Nc3cccc(C(F)(F)F)c3)n2)cc1`
Ans. f

Qu. Is 40% strictly greater than the compound's reported MurD RA [%]? compound: `N#Cc1ccc(Oc2nccc(-c3c(-c4ccc(F)cc4)ncn3C3CCNCC3)n2)cc1`
Ans. t

Qu. Is 40% strictly greater than the compound's reported MurD RA [%]? compound: CCCN1CCCC(c2ccc(Nc3nc(Nc4cc(F)ccc4C(N)=O)c4cc[nH]c4n3)c(OC)c2)C1 (centres unmarked)
Ans. t

###

Give remaining activity at 100 µM for every item shown.
ASSAYED_TARGET: E. coli MurD (Escherichia coli, UniProt P14900)
Sequence (P14900 whole entry): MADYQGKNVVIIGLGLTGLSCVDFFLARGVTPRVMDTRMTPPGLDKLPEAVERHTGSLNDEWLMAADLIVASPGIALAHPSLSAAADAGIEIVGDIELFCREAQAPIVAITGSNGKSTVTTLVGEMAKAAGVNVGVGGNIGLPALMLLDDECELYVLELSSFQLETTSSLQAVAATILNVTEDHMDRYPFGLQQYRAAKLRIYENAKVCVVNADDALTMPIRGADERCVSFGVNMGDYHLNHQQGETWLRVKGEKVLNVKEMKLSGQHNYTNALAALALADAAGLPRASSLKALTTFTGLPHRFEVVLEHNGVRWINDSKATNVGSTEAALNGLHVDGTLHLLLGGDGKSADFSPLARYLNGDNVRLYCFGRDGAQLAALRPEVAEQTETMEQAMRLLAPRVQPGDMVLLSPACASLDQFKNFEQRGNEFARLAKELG
TEST_METHOD_NOTES: biochemical
PROTOCOL_CONDITIONS: 0.25 h, Table S1, PKIS screening; read-out: RA [%] at 100 µM MurD
Field: numeric (%). Do not append units.

Summary line: NC(=O)c1ccc(Oc2nccc(-c3c(-c4ccc(F)cc4)ncn3C3CCNCC3)n2)cc1 [SB-242718] , E. coli MurD (Escherichia coli, UniProt P14900), reported remaining activity at 100 µM = 65

Summary line: [O-][S+]1CCN(Cc2ccc(-c3ccc4ncnc(Nc5ccc(OCc6ccccc6)c(F)c5)c4c3)o2)CC1 [GW576924A] , E. coli MurD (Escherichia coli, UniProt P14900), reported remaining activity at 100 µM = 85

Summary line: COc1ccc(COc2ccc(Cc3cnc(N)nc3N)cc2OC)cc1 [GW632580X] , E. coli MurD (Escherichia coli, UniProt P14900), reported remaining activity at 100 µM = 89

Summary line: Fc1ccc(-c2ncn(CCCN3CCOCC3)c2-c2ccncc2)cc1 [SB-210313] , E. coli MurD (Escherichia coli, UniProt P14900), reported remaining activity at 100 µM = 91

Summary line: NS(=O)(=O)c1ccc(NN=C2C(=O)Nc3ccc(C(=O)NCCCn4ccnc4)cc32)cc1 [GW290597X] , E. coli MurD (Escherichia coli, UniProt P14900), reported remaining activity at 100 µM = 92

Summary line: Cc1ccc2c(-c3ccnc(Nc4ccc5c(c4)OCCO5)n3)c(-c3ccc(C(F)(F)F)cc3)nn2n1 [GW832467X] , E. coli MurD (Escherichia coli, UniProt P14900), reported remaining activity at 100 µM = 62

Summary line: c1cnn2ncc(-c3ccnc(Nc4ccc5c(c4)OCCO5)n3)c2c1 [GW806290X] , E. coli MurD (Escherichia coli, UniProt P14900), reported remaining activity at 100 µM = 69

Summary line: Cc1ccc(C(=O)NC2CC2)cc1-c1ccc2[nH]ncc2c1 [GW820759X] , E. coli MurD (Escherichia coli, UniProt P14900), reported remaining activity at 100 µM = 100

Summary line: O=C1Nc2ccc(-c3cccnc3)cc2C1=Cc1cc(Br)c(O)c(Br)c1 [GW429374A] , E. coli MurD (Escherichia coli, UniProt P14900), reported remaining activity at 100 µM = 51

Summary line: C[C@@H](Oc1cc(-n2cnc3ccc(OC4CCN(C)CC4)cc32)sc1C(N)=O)c1ccccc1Cl [GSK579289A] , E. coli MurD (Escherichia coli, UniProt P14900), reported remaining activity at 100 µM = 70

Summary line: CCn1c(-c2nonc2N)nc2c(C#CCN)ncc(OCCCN)c21 [GSK561866B] , E. coli MurD (Escherichia coli, UniProt P14900), reported remaining activity at 100 µM = 82

Summary line: CS(=O)(=O)CCNCc1coc(-c2ccc3ncnc(Nc4ccc(OCc5ccccc5)cc4)c3c2)c1 [GW566221B] , E. coli MurD (Escherichia coli, UniProt P14900), reported remaining activity at 100 µM = 69

Summary line: NS(=O)(=O)c1cccc(N/C=C2\C(=O)Nc3ccccc32)c1 [GW275616X] , E. coli MurD (Escherichia coli, UniProt P14900), reported remaining activity at 100 µM = 88

Summary line: FC(F)(F)c1ccc(-c2nn3ncccc3c2-c2ccnc(Nc3ccc4c(c3)OCCO4)n2)cc1 [GW828525X] , E. coli MurD (Escherichia coli, UniProt P14900), reported remaining activity at 100 µM = 90

Summary line: COc1cc(C)c(N(C)C(=O)CN(C)C)cc1Nc1nc(Nc2cccc(F)c2C(N)=O)c2cc[nH]c2n1 [GSK2219385A] , E. coli MurD (Escherichia coli, UniProt P14900), reported remaining activity at 100 µM = 93

Summary line: CCc1nccc2c1nc(-c1nonc1N)n2CC [SB-751148] , E. coli MurD (Escherichia coli, UniProt P14900), reported remaining activity at 100 µM = 96

Summary line: COc1cc2ncn(-c3cc(OCc4ccccc4Cl)c(C(N)=O)s3)c2cc1OC [GW852849X] , E. coli MurD (Escherichia coli, UniProt P14900), reported remaining activity at 100 µM = 81
